// kcat lookup, one value per entry
# System: Escherichia coli
# ASSAY_EXPLANATION: Activity of Escherichia coli BL21(DE3) beta-lactamase TEM1
Respond with the bare value in s⁻¹.

See these solved cases before continuing.
[
  {
    "MOLECULE": "CC1(C)S[C@@H]2[C@H](NC(=O)[C@H](C(=O)O)c3ccsc3)C(=O)N2[C@H]1C(=O)O [TICARCILLIN]",
    "UNIT_LABEL": "s⁻¹",
    "kcat": 135
  },
  {
    "MOLECULE": "CC(=O)OCC1=C(C(=O)O)N2C(=O)[C@@H](NC(=O)Cc3cccs3)[C@H]2SC1 [CEPHALOTHIN]",
    "UNIT_LABEL": "s⁻¹",
    "kcat": 165
  },
  {
    "MOLECULE": "CCN1CCN(C(=O)N[C@@H](C(=O)N[C@@H]2C(=O)N3[C@@H]2SC(C)(C)[C@@H]3C(=O)O)c2ccccc2)C(=O)C1=O [PIPERACILLIN]",
    "UNIT_LABEL": "s⁻¹",
    "kcat": 1250
  }
]

Here's the next entry for you.
Challenge: Reported kcat for CC1(C)S[C@@H]2[C@H](NC(=O)[C@H](N)c3ccc(O)cc3)C(=O)N2[C@H]1C(=O)O [AMOXICILLIN] : what is it?
Response given: 1120
